System: chronic lymphocytic leukemia (CLL) samples classified by expression subtype (Ec-i, EC-m1, EC-m2, EC-m3, EC-m4, EC-o, EC-u1, EC-u2)
Assay: Ex-vivo drug sensitivity (percent viability) of CLL samples compared between expression subtypes (ECs); also: test concentration or dose not given here
Assay type: cell-based
Conditions: all ECs other than EC-m3
Item-by-item account of Mean viability in the other ECs
A bare number is all that is needed in reply.

Please review the entries below; each comes with its answer.
| compound.structure | endpoint.label | reported.value |
| --- | --- | --- |
| CN(C)C/C=C/C(=O)Nc1cc2c(Nc3ccc(F)c(Cl)c3)ncnc2cc1O[C@H]1CCOC1 | Mean viability in the other ECs | 1.08 |
| CC(C)c1cc(C(=O)N2Cc3ccc(CN4CCN(C)CC4)cc3C2)c(O)cc1O | Mean viability in the other ECs | 0.72 |
| C/C1=C\[C@@H](C)C/C=C/[C@H]2[C@@H]3O[C@]3(C)[C@@H](C)[C@H]3[C@H](Cc4c[nH]c5ccccc45)NC(=O)[C@]32C(=O)/C=C/C(=O)[C@@H]1O | Mean viability in the other ECs | 1.07 |
| CC[C@H](Nc1ncnc2nc[nH]c12)c1nc2cccc(F)c2c(=O)n1-c1ccccc1 | Mean viability in the other ECs | 0.93 |
| COc1cc2nc(-c3cc(F)ccc3O)nc(N[C@@H]3CNC[C@H]3C(C)(C)O)c2cc1OC | Mean viability in the other ECs | 1.06 |

Req: Can you share its Mean viability in the other ECs? I mean this molecule: C=CCn1c(=O)c2cnc(Nc3ccc(N4CCN(C)CC4)cc3)nc2n1-c1cccc(C(C)(C)O)n1
Resp: 1.00

Req: Can you share its Mean viability in the other ECs? I mean this molecule: Cn1cnc2c(F)c(Nc3ccc(Br)cc3Cl)c(C(=O)NOCCO)cc21
Resp: 0.93
